Reference for the values: patent US20070078092A1

Collected IC50, in vitro kinase assay PKB values appear next to each entry.
target: protein kinase B (PKB); assay: cell-based or functional assay
Numbered stars: 1 amine (or outer) side, 2 acyl side, 3 side chain; on linkers, the order of the positions; unused ones are H or OH. Square brackets hold non-standard residues; d marks the D form. * marks the point of attachment. Cholesteryloxycarbonyl = CC(C)CCC[C@@H](C)[C@H]1CC[C@H]2[C@@H]3CC=C4C[C@@H](OC(=O)*)CC[C@]4(C)[C@H]3CC[C@]12C; Ser(Me) = COC[C@H](N[*:1])C(=O)[*:2]; hLeu = CC(C)CC[C@H](N)C(=O)O; Orn = NCCC[C@H](N)C(=O)O; Nva = CCC[C@H](N)C(=O)O; Dap = NC[C@H](N)C(=O)O
// units = µM; emit number, no label

Below are worked cases with known answers.
{Coumarin‑3‑oyl}-RPR[Nva]Y[Dap][hLeu]-NH2 [PTR 6392] :: 5
{HO‑CO‑(CH2)2‑CO}-[dK][dK][dK]RPR[Nva]Y[Dap][hLeu]-NH2 [PTR 6394] :: 10
XPRXYXX (N-terminal Cholesteryl-O-CO-; Nva, Dap, Hol; C-terminal NH2) [PTR 6374] :: 1.4
Cholesteryloxycarbonyl-GRPR[Nva]Y[Ser(Me)][hLeu]-NH2 (SMILES CCC[C@H](NC(=O)[C@H](CCCNC(=N)N)NC(=O)[C@@H]1CCCN1C(=O)[C@H](CCCNC(=N)N)NC(=O)CNC(=O)O[C@H]1CC[C@@]2(C)C(=CC[C@H]3[C@@H]4CC[C@H]([C@H](C)CCCC(C)C)[C@@]4(C)CC[C@@H]32)C1)C(=O)N[C@@H](Cc1ccc(O)cc1)C(=O)N[C@@H](COC)C(=O)N[C@@H](CCC(C)C)C(N)=O) [PTR 6306] :: 0.5
Cholesteryloxycarbonyl-[Orn]P[Orn][Nva]Y[Dap][hLeu]-NH2 (SMILES CCC[C@H](NC(=O)[C@H](CCCN)NC(=O)[C@@H]1CCCN1C(=O)[C@H](CCCN)NC(=O)O[C@H]1CC[C@@]2(C)C(=CC[C@H]3[C@@H]4CC[C@H]([C@H](C)CCCC(C)C)[C@@]4(C)CC[C@@H]32)C1)C(=O)N[C@@H](Cc1ccc(O)cc1)C(=O)N[C@@H](CN)C(=O)N[C@@H](CCC(C)C)C(N)=O) [PTR 6386] :: 2
Cholesteryloxycarbonyl-GGGGGRPR[Nva]Y[Dap][hLeu]-NH2 (SMILES CCC[C@H](NC(=O)[C@H](CCCNC(=N)N)NC(=O)[C@@H]1CCCN1C(=O)[C@H](CCCNC(=N)N)NC(=O)CNC(=O)CNC(=O)CNC(=O)CNC(=O)CNC(=O)O[C@H]1CC[C@@]2(C)C(=CC[C@H]3[C@@H]4CC[C@H]([C@H](C)CCCC(C)C)[C@@]4(C)CC[C@@H]32)C1)C(=O)N[C@@H](Cc1ccc(O)cc1)C(=O)N[C@@H](CN)C(=O)N[C@@H](CCC(C)C)C(N)=O) [PTR 6334] :: 1

Fill blank: measured IC50, in vitro kinase assay PKB of the binder Cholesteryloxycarbonyl-RPR[Nva]Y[Dap][hLeu][dK][dK][dK]-NH2 (SMILES CCC[C@H](NC(=O)[C@H](CCCNC(=N)N)NC(=O)[C@@H]1CCCN1C(=O)[C@H](CCCNC(=N)N)NC(=O)O[C@H]1CC[C@@]2(C)C(=CC[C@H]3[C@@H]4CC[C@H]([C@H](C)CCCC(C)C)[C@@]4(C)CC[C@@H]32)C1)C(=O)N[C@@H](Cc1ccc(O)cc1)C(=O)N[C@@H](CN)C(=O)N[C@@H](CCC(C)C)C(=O)N[C@H](CCCCN)C(=O)N[C@H](CCCCN)C(=O)N[C@H](CCCCN)C(N)=O) [PTR 6346] is ____.
0.2
